Measured luciferase signal accompanies every entry in the list below.
Target: Mitogen-activated protein kinase 7 (Homo sapiens) (UniProt Q13164)
Sequence (Q13164 whole entry, looked up, the tested form may be a part): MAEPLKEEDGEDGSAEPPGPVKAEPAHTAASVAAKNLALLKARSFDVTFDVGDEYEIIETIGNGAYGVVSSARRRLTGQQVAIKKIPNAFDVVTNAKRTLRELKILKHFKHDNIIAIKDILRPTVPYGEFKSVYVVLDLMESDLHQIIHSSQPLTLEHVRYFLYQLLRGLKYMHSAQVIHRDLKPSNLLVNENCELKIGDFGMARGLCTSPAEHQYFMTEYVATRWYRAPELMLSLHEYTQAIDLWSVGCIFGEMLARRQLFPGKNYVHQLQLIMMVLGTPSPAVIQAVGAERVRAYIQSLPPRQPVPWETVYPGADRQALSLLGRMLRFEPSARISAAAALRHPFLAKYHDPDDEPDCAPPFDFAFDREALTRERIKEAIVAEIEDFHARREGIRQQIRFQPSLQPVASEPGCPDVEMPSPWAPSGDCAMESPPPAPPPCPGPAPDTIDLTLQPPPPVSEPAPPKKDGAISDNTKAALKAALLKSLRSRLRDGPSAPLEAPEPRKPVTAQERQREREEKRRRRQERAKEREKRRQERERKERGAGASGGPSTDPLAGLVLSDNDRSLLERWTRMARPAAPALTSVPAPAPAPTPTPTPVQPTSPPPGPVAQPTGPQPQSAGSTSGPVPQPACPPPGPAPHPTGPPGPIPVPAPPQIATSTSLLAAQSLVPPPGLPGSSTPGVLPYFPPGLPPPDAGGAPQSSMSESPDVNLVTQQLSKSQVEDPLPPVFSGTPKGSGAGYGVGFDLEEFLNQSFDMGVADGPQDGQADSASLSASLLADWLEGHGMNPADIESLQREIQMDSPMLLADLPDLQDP
Experiment: ERK5 transactivation activators in reporter cells, primary screen, cell-based, HTS (AID 1508626);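 further: luciferase driven by Gal4-ERK5 fusion binding five Gal4 sites before minimal TATA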
Details: HeLa Gal4-ERK5 transactivation, 18 h, at 5 µM, stronger effect = higher value
The source made the active and inactive calls.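 How the source made its calls: active means luciferase signal above three times the same-plate solvent-only control wells; inactive means the rest.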

Solved cases below.
>>> observed_result("CCCCC(=O)O[C@]1(C(=O)CO)CC[C@H]2[C@@H]3CCC4=CC(=O)CC[C@]4(C)[C@H]3[C@@H](O)C[C@@]21C")
"72 AU (inactive)"
>>> observed_result("NC(=O)NCCC[C@H](N)C(=O)O")
"72 AU (inactive)"
>>> observed_result("CC(C)=CCOc1cc2oc(=O)ccc2cc1O")
"36 AU (inactive)"

// switching to the query compound
State the recorded luciferase signal for this entry: O=C(CCc1ccc(O)cc1)c1c(O)cc(O)cc1O[C@@H]1O[C@H](CO)[C@@H](O)[C@H](O)[C@H]1O
28 AU (inactive)

----------
Reported values of inhibition for individual entries
Test system: Hepatitis C virus NS3 helicase
Test: HCV NS3 helicase inhibitors, primary screen, biochemical, fluorescence polarization, NIH Clinical Collection (AID 743270)
Conditions: NS3 helicase binding to Cy5-dT15 DNA, stronger effect = higher value, concentration not given here
Active and inactive are the calls of the source. No rule for the calls is given here.

In the examples that follow, each entry is paired with its recorded inhibition.
>>> observed_result("CCCC(=O)Nc1ccc(OCC(O)CNC(C)C)c(C(C)=O)c1 (stereo not drawn)")
"-3.18% (inactive)"
>>> observed_result("CN=C(N)NCCC[C@H](N)C(=O)O")
"-3.56% (inactive)"

// switching to the query compound
Dear colleague, I am looking for the recorded inhibition of the following compound: COC(=O)C1=C(C)NC(C)=C(C(=O)OCCN(C)Cc2ccccc2)C1c1cccc([N+](=O)[O-])c1 (stereo not drawn)
-1.36% (inactive)

----------
Assay: sensitizers of A549 cells to miR-34 induction, primary screen, imaging, A549 dox-inducible miR-34, nuclei and caspase counts (AID 1347080)
Conditions: A549 miR-34 inducible, Hoechst nuclei count, 48 h; measured here: total cells with miR-34 induction; stronger effect = lower value
Each entry below lists one item and its recorded cell count value.
Lab note: record just the number, no unit beside it.

>>> observed_result("CC(C(=O)O)c1ccc2c(c1)CC(=O)c1ccccc1S2 (configuration not stated)")
9750

Fill in the blank: the reported cell count of C=C1C(=O)O[C@H]2[C@H]1CC/C(C)=C/CC[C@@]1(C)O[C@@H]21 is ____.
8550

Any idea what its cell count is? The molecule is O=C1NC(=O)[C@@]2(CCOc3ccc(F)cc32)N1
9980

Quick one: cell count for CSc1ccc(C(=O)c2[nH]c(=O)[nH]c2C)cc1 ?
8650

Request the reported cell count associated with CN[C@H](CC(=O)O)C(=O)O
10900

# query: cell count of entry CCN(CC)CCOc1ccc2c(c1)C(=O)c1cc(OCCN(CC)CC)ccc1-2
9990

// lookup cell count for CC(=O)OCC(=O)[C@@]1(OC(C)=O)[C@@H](C)C[C@H]2[C@@H]3C[C@H](F)C4=CC(=O)C=C[C@]4(C)[C@@]3(F)[C@@H](O)C[C@@]21C
7160

----------
Tested on: Hepatitis C virus NS3 helicase
Experiment: HCV NS3 helicase inhibitors, primary screen, biochemical, fluorescence polarization, LOPAC1280 library (AID 687035)
Details: Purified HCV NS3 helicase, Cy5-dT15 ssDNA binding fluorescence polarization; stronger effect = higher value; concentration not given here
measured.endpoint: inhibition (%)
Number in %, nothing else.

Known inhibition results, listed for orientation:
>>> observed_result("NCCCS(=O)(=O)O")
-1
>>> observed_result("O=c1[nH]c(=O)n([C@H]2C[C@H](O)[C@@H](CO)O2)cc1Br")
-1

Turning now to a further record.
Recorded inhibition for C[N+](C)(C)CCCCCCCCCC[N+](C)(C)C with Hepatitis C virus NS3 helicase, please?
2

The reported measurements were obtained from PubChem BioAssay.
